- procedure_text: in vitro
- conditions: human, liver microsomes
- Description: Metabolic stability in human liver microsomes assessed as compound remaining after 60 mins at 1 uM
property_measured: remaining at 1 h, 1 µM (%)
Value expressed in %; do not type the unit.

Worked cases, remaining at 1 h, 1 µM given:
                               given_smiles       property_measured  value_unit  value_observed
0  CS(=O)(=O)Nc1ccc2c(c1)S(=O)(=O)N=C(C1=C(O)[C@@H]3C4CCC(CC4)[C@@H]3N(Cc3ccc(F)cc3F)C1=O)N2  remaining at 1 h, 1 µM           %             100
1  CS(=O)(=O)Nc1ccc2c(c1)S(=O)(=O)N=C(C1=C(O)[C@@H]3C4CCC(CC4)[C@@H]3N(Cc3ccc(Cl)cc3)C1=O)N2  remaining at 1 h, 1 µM           %             100

Reported remaining at 1 h, 1 µM ( CS(=O)(=O)Nc1ccc2c(c1)S(=O)(=O)N=C(C1=C(O)[C@@H]3C4CCC(CC4)[C@@H]3N(Cc3ccccc3)C1=O)N2 ) = 82

Reported remaining at 1 h, 1 µM ( CS(=O)(=O)Nc1ccc2c(c1)S(=O)(=O)N=C(C1=C(O)[C@@H]3C4CCC(CC4)[C@@H]3N(Cc3ccc(F)c(F)c3)C1=O)N2 ) = 81

Reported remaining at 1 h, 1 µM ( CS(=O)(=O)Nc1ccc2c(c1)S(=O)(=O)N=C(C1=C(O)[C@@H]3[C@H]4CC[C@H](C4)[C@@H]3N(Cc3ccc(F)c(F)c3)C1=O)N2 ) = 100

Reported remaining at 1 h, 1 µM ( COc1cccc(CN2C(=O)C(C3=NS(=O)(=O)c4cc(NS(C)(=O)=O)ccc4N3)=C(O)[C@@H]3C4CCC(CC4)[C@@H]32)c1 ) = 50

====

- procedure_text: in vitro
- conditions: human, microsomes
Met if remaining at 1 h, 1 µM is below 80%. Not met if not; exact matches included in Not met.

The examples below pair each entry with its known result.
>>> print(df.to_string())
                               given_smiles  assigned_label
0  CS(=O)(=O)Nc1ccc2c(c1)S(=O)(=O)N=C(C1=C(O)[C@@H]3[C@@H]4CC[C@@H](C4)[C@@H]3N(Cc3ccc(Cl)cc3)C1=O)N2         Not met
1  CS(=O)(=O)Nc1ccc2c(c1)S(=O)(=O)N=C(C1=C(O)[C@@H]3[C@H]4CC[C@H](C4)[C@@H]3N(Cc3ccc(F)cc3)C1=O)N2             Met

Find out if reported remaining at 1 h, 1 µM for CS(=O)(=O)Nc1ccc2c(c1)S(=O)(=O)N=C(C1=C(O)[C@@H]3[C@@H]4CC[C@@H](C4)[C@@H]3N(Cc3cccs3)C1=O)N2 is less than 80%
Met

Find out if reported remaining at 1 h, 1 µM for CS(=O)(=O)Nc1ccc2c(c1)S(=O)(=O)N=C(C1=C(O)[C@@H]3[C@@H]4CC[C@@H](C4)[C@@H]3N(Cc3ccc(F)cc3F)C1=O)N2 is less than 80%
Not met

Find out if reported remaining at 1 h, 1 µM for CS(=O)(=O)Nc1ccc2c(c1)S(=O)(=O)N=C(C1=C(O)[C@@H]3[C@H]4CC[C@H](C4)[C@@H]3N(Cc3cccc(F)c3)C1=O)N2 is less than 80%
Not met

Find out if reported remaining at 1 h, 1 µM for CS(=O)(=O)Nc1ccc2c(c1)S(=O)(=O)N=C(C1=C(O)[C@@H]3[C@H]4CC[C@H](C4)[C@@H]3N(Cc3ccc(F)cc3Cl)C1=O)N2 is less than 80%
Not met

Find out if reported remaining at 1 h, 1 µM for CS(=O)(=O)Nc1ccc2c(c1)S(=O)(=O)NC(C1=C(O)[C@@H]3CCC[C@@H]3N(Cc3ccc(F)cc3)C1=O)=N2 is less than 80%
Not met

Find out if reported remaining at 1 h, 1 µM for CS(=O)(=O)Nc1ccc2c(c1)S(=O)(=O)N=C(C1=C(O)[C@@H]3[C@H]4CC[C@H](C4)[C@@H]3N(Cc3ccc(Cl)cc3)C1=O)N2 is less than 80%
Not met

Find out if reported remaining at 1 h, 1 µM for CS(=O)(=O)Nc1ccc2c(c1)S(=O)(=O)N=C(C1=C(O)[C@H]3[C@H]4CC[C@H](C4)[C@H]3N(Cc3ccc(F)cc3)C1=O)N2 is less than 80%
Met
